// values below are reported half-life at 2 h, 5 µM
- experiment.summary: in vitro
- condition.label: guinea pig, plasma
- Description: Stability in guinea pig plasma assessed as half-life at 5 uM incubated for 120 mins by LC-MS/MS analysis
readout.kind: half-life at 2 h, 5 µM (min)

O=C(c1ccc(CNC[C@H](O)c2ccc(O)c3[nH]c(=O)ccc23)cc1)N1CC(COc2cccc([C@](O)(C(=O)OCC3CCN(Cc4ccccc4)CC3)c3ccccc3)c2)C1    19
O=C(NCCCOc1cccc([C@](O)(C(=O)OC2CCN(Cc3ccccc3)CC2)c2ccccc2)c1)c1ccc(CNC[C@H](O)c2ccc(O)c3[nH]c(=O)ccc23)cc1    8
O=C(NCCCOc1cccc([C@](O)(C(=O)OC[C@@H]2CCN(Cc3ccccc3)C2)c2ccccc2)c1)c1ccc(CNC[C@H](O)c2ccc(O)c3[nH]c(=O)ccc23)cc1    58
COc1cc(C(=O)NCCCOc2cccc([C@](O)(C(=O)OCC3CCN(Cc4ccccc4)CC3)c3ccccc3)c2)c(F)cc1CNC[C@H](O)c1ccc(O)c2[nH]c(=O)ccc12    8
CN1CCC[C@H](OC(=O)[C@](O)(c2ccccc2)c2cccc(OCCCNC(=O)c3ccc(CNC[C@H](O)c4ccc(O)c5[nH]c(=O)ccc45)cc3)c2)C1.O=CO.O=CO    51

###

- experiment.summary: Drug concentration in male albino Dunkin-Hartley guinea pig lung at 50 nmol/kg, IT(Intratracheal) measured after 3 hrs
- condition.label: inhaled or intranasal
readout.kind: concentration at 3 h (ng/g)

O=C(NCCCOc1cccc([C@](O)(C(=O)OCC2CCN(Cc3ccccc3)CC2)c2ccccc2)c1)c1ccc(CNC[C@H](O)c2ccc(O)c3[nH]c(=O)ccc23)cc1    1160

###

- experiment.summary: Metabolic stability in human hepatocytes assessed as parent compound remaining at 10 uM incubated for 60 mins by LC-MS/MS analysis
readout.kind: remaining at 1 h, 10 µM (%)

O=C(NCCCOc1cccc([C@](O)(C(=O)OCC2CCN(Cc3ccccc3)CC2)c2ccccc2)c1)c1ccc(CNC[C@H](O)c2ccc(O)c3[nH]c(=O)ccc23)cc1    91

###

Quick record: log10 of Ki, Beta-2 adrenergic receptor (Homo sapiens).
readout.kind: log10 of Ki (log10 of the value in nM)

CN1CCC[C@@H](OC(=O)[C@](O)(c2ccccc2)c2cccc(OCCCNC(=O)c3cnc(CNC[C@H](O)c4ccc(O)c5[nH]c(=O)ccc45)nc3)c2)C1.O=CO    -1.60
O=C(NCCCCNC[C@H](O)c1ccc(O)c2[nH]c(=O)ccc12)c1ccc(C(=O)N2CCC(C(=O)O[C@H]3CN4CCC3CC4)(c3ccccc3)CC2)cc1    -0.20
O=C(c1ccc(OCc2ccc(CNC[C@H](O)c3ccc(O)c4[nH]c(=O)ccc34)cc2)cc1)N1CCC(C(=O)OC2CN3CCC2CC3)(c2ccccc2)CC1 (single isomer, unassigned)    -0.70
O=C(NCc1ccc(-c2cccc([C@](O)(C(=O)OCC3CCN(Cc4ccccc4)CC3)c3ccccc3)c2)s1)c1ccc(CNC[C@H](O)c2ccc(O)c3[nH]c(=O)ccc23)cc1    0.40
COc1cc(C(=O)NCCCOc2cccc([C@](O)(C(=O)O[C@@H]3CCCN(C)C3)c3ccccc3)c2)c(Cl)cc1CNC[C@H](O)c1ccc(O)c2[nH]c(=O)ccc12    -1.60
CN1CCC(COC(=O)[C@](O)(c2ccccc2)c2cccc(-c3ccc(CNC(=O)c4ccc(CNC[C@H](O)c5ccc(O)c6[nH]c(=O)ccc56)cc4)s3)c2)CC1    -0.40
O=C(NCCCOc1cccc([C@@](O)(C(=O)OCC2CCN(Cc3ccccc3)CC2)c2ccccc2)c1)c1ccc(CNCC(O)c2ccc(O)c3[nH]c(=O)ccc23)cc1 (stereo partly drawn)    -1.30
O=C(c1ccc(CNC[C@H](O)c2ccc(O)c3[nH]c(=O)ccc23)cc1)N1CC(COc2cccc([C@](O)(C(=O)OCC3CCN(Cc4ccccc4)CC3)c3ccccc3)c2)C1    0.00
O=C(NCCCOc1cccc([C@](O)(C(=O)OC[C@H]2CCN(Cc3ccccc3)C2)c2ccccc2)c1)c1ccc(CNC[C@H](O)c2ccc(O)c3[nH]c(=O)ccc23)cc1    -0.90
COc1cc(C(=O)NCCCOc2cccc([C@](O)(C(=O)OCC3CCN(Cc4ccccc4)CC3)c3ccccc3)c2)c(F)cc1CNC[C@H](O)c1ccc(O)c2[nH]c(=O)ccc12    -0.60
O=C(NCCCCNC[C@H](O)c1ccc(O)c2[nH]c(=O)ccc12)c1ccc(C(=O)NC2(C(=O)O[C@H]3CN4CCC3CC4)CCc3ccccc32)cc1 (single isomer, unassigned)    -0.40
CN1CCC(COC(=O)[C@@](O)(c2ccccc2)c2cccc(-c3ccc(CNC(=O)c4ccc(CNC[C@H](O)c5ccc(O)c6[nH]c(=O)ccc56)cc4)s3)c2)CC1    0.00
O=C(NCCCCNC[C@H](O)c1ccc(O)c2[nH]c(=O)ccc12)c1ccc(CNC2(C(=O)O[C@H]3CN4CCC3CC4)CCc3ccccc32)cc1 (mixture of isomers)    -0.30
COc1cc(CNC[C@H](O)c2ccc(O)c3[nH]c(=O)ccc23)c(Cl)cc1C(=O)NCCCOc1cccc([C@](O)(C(=O)O[C@@H]2CCCN(C)C2)c2ccccc2)c1    -1.00
O=C(NCCCOc1cccc([C@](O)(C(=O)OCC2CCN(Cc3ccccc3)CC2)c2ccccc2)c1)c1ccc(CNC[C@H](O)c2ccc(O)c3[nH]c(=O)ccc23)cc1    -1.00
O=C(NCCCOc1cccc([C@](O)(C(=O)OC2CCN(Cc3ccccc3)CC2)c2ccccc2)c1)c1ccc(CNC[C@H](O)c2ccc(O)c3[nH]c(=O)ccc23)cc1    -1.30
O=C(NCCCOc1cccc([C@](O)(C(=O)O[C@H]2CCN(Cc3ccccc3)C2)c2ccccc2)c1)c1ccc(CNC[C@H](O)c2ccc(O)c3[nH]c(=O)ccc23)cc1    -0.40
COc1cc(C(=O)NCCCOc2cccc([C@](O)(C(=O)OCC3CCN(CC4CC4)CC3)c3ccccc3)c2)c(F)cc1CNC[C@H](O)c1ccc(O)c2[nH]c(=O)ccc12.O=CO.O=CO    -0.50
Cc1cc(C(=O)NCCCOc2cccc([C@](O)(C(=O)O[C@@H]3CCCN(C)C3)c3ccccc3)c2)c(C)cc1CNC[C@H](O)c1ccc(O)c2[nH]c(=O)ccc12    -1.80
CN1CCC[C@@H](OC(=O)[C@](O)(c2ccccc2)c2cccc(OCCCNC(=O)c3cccc(CNC[C@H](O)c4ccc(O)c5[nH]c(=O)ccc45)c3)c2)C1    0.30
COc1cc(C(=O)NCCCOc2cccc([C@](O)(C(=O)OCC3CCN(Cc4ccccc4)CC3)c3ccccc3)c2)ccc1CNC[C@H](O)c1ccc(O)c2[nH]c(=O)ccc12    -0.40
CN1CCC(COC(=O)[C@](O)(c2ccccc2)c2cccc(OCCCNC(=O)c3ccc(CNC[C@H](O)c4ccc(O)c5[nH]c(=O)ccc45)cc3)c2)CC1    -1.40
CN1CCC[C@@H](OC(=O)[C@](O)(c2ccccc2)c2cccc(OCCCNC(=O)c3ccc(CNC[C@H](O)c4ccc(O)c5[nH]c(=O)ccc45)cc3)c2)C1    -1.60

###

half-life at 2 h, 5 µM listing for selected molecules.
- experiment.summary: in vitro
- condition.label: guinea pig, plasma
readout.kind: half-life at 2 h, 5 µM (min)

O=C(NCc1ccc(-c2cccc([C@](O)(C(=O)OCC3CCN(Cc4ccccc4)CC3)c3ccccc3)c2)s1)c1ccc(CNC[C@H](O)c2ccc(O)c3[nH]c(=O)ccc23)cc1    13
COc1cc(C(=O)NCCCOc2cccc([C@](O)(C(=O)OCC3CCN(Cc4ccccc4)CC3)c3ccccc3)c2)ccc1CNC[C@H](O)c1ccc(O)c2[nH]c(=O)ccc12    6
CN1CCC[C@@H](OC(=O)[C@](O)(c2ccccc2)c2cccc(OCCCNC(=O)c3ccc(CNC[C@H](O)c4ccc(O)c5[nH]c(=O)ccc45)cc3)c2)C1    78
O=C(NCCCOc1cccc([C@](O)(C(=O)O[C@H]2CCCN(Cc3ccccc3)C2)c2ccccc2)c1)c1ccc(CNC[C@H](O)c2ccc(O)c3[nH]c(=O)ccc23)cc1.O=CO    15

###

- experiment.summary: in vitro
- condition.label: rat, plasma
- Description: Stability in rat plasma assessed as half-life at 5 uM incubated for 120 mins by LC-MS/MS analysis
Listing of recorded half-life at 2 h, 5 µM by entry.
readout.kind: half-life at 2 h, 5 µM (min)

COc1cc(C(=O)NCCCOc2cccc([C@](O)(C(=O)OCC3CCN(Cc4ccccc4)CC3)c3ccccc3)c2)ccc1CNC[C@H](O)c1ccc(O)c2[nH]c(=O)ccc12    36
COc1cc(C(=O)NCCCOc2cccc([C@](O)(C(=O)O[C@@H]3CCCN(C)C3)c3ccccc3)c2)c(Cl)cc1CNC[C@H](O)c1ccc(O)c2[nH]c(=O)ccc12    54
COc1cc(C(=O)NCCCOc2cccc([C@](O)(C(=O)O[C@@H]3CCCN(C)C3)c3ccccc3)c2)c(F)cc1CNC[C@H](O)c1ccc(O)c2[nH]c(=O)ccc12    87
CN1CCC[C@@H](OC(=O)[C@](O)(c2ccccc2)c2cccc(OCCCNC(=O)c3ccc(CNC[C@H](O)c4ccc(O)c5[nH]c(=O)ccc45)nc3)c2)C1.O=CO.O=CO    17
CCN1CCC(COC(=O)[C@](O)(c2ccccc2)c2cccc(OCCCNC(=O)c3cc(OC)c(CNC[C@H](O)c4ccc(O)c5[nH]c(=O)ccc45)cc3F)c2)CC1.O=C(O)C(F)(F)F.O=C(O)C(F)(F)F    56
CN1CCC[C@H](OC(=O)[C@](O)(c2ccccc2)c2cccc(OCCCNC(=O)c3ccc(CNC[C@H](O)c4ccc(O)c5[nH]c(=O)ccc45)cc3)c2)C1.O=CO.O=CO    8
O=C(NCCCOc1cccc([C@](O)(C(=O)OC[C@H]2CCN(Cc3ccccc3)C2)c2ccccc2)c1)c1ccc(CNC[C@H](O)c2ccc(O)c3[nH]c(=O)ccc23)cc1    32
COc1cc(C(=O)NCCCOc2cccc([C@](O)(C(=O)O[C@@H]3CCCN(C)C3)c3ccccc3)c2)ccc1CNC[C@H](O)c1ccc(O)c2[nH]c(=O)ccc12    17
O=C(NCCCOc1cccc([C@](O)(C(=O)O[C@@H]2CCN(Cc3ccccc3)C2)c2ccccc2)c1)c1ccc(CNC[C@H](O)c2ccc(O)c3[nH]c(=O)ccc23)cc1    5
